This collection of values is drawn from patent US20240228562A1.

- assay_protocol: Thermal stability assessment by nanoDSC
- Assay type: physicochemical
- settings: 1 mg/mL in PBS, scan 25-100° C. at 1° C./min, major transition
measured_quantity: TM (°C)

molecule	measured_quantity	endpoint_value
SEQ ID NO: 24: optimized CTGF-binding hNGAL lipocalin mutein (protein, lipocalin mutein) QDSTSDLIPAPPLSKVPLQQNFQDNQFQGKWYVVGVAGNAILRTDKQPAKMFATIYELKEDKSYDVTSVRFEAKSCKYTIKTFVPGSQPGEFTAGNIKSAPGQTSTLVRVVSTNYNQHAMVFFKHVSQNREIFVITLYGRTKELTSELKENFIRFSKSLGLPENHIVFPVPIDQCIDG	TM	72
SEQ ID NO: 32: optimized CTGF-binding hNGAL lipocalin mutein (protein, lipocalin mutein) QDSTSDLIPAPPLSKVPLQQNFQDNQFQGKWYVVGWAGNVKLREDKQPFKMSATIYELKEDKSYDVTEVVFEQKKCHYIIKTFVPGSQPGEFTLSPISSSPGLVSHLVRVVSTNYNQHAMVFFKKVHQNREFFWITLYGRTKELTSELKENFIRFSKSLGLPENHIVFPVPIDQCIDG	TM	79
SEQ ID NO: 15: optimized CTGF-binding hNGAL lipocalin mutein (protein, lipocalin mutein) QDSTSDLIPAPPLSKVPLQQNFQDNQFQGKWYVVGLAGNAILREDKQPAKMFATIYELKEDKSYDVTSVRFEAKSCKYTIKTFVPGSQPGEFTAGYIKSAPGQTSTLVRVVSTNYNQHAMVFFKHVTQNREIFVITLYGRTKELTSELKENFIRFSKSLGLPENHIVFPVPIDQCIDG	TM	73
SEQ ID NO: 35: optimized CTGF-binding hNGAL lipocalin mutein (protein, lipocalin mutein) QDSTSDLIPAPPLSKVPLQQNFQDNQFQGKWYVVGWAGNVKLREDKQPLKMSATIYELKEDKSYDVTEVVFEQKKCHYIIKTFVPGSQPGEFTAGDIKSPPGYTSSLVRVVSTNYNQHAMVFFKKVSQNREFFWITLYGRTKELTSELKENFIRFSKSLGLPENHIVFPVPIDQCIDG	TM	78
SEQ ID NO: 19: optimized CTGF-binding hNGAL lipocalin mutein (protein, lipocalin mutein) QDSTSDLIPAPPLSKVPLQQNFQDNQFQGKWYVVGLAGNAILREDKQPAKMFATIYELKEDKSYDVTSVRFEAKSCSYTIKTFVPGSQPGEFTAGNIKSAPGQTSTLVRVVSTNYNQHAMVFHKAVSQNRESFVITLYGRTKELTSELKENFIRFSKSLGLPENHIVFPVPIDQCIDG	TM	65
SEQ ID NO: 31: optimized CTGF-binding hNGAL lipocalin mutein (protein, lipocalin mutein) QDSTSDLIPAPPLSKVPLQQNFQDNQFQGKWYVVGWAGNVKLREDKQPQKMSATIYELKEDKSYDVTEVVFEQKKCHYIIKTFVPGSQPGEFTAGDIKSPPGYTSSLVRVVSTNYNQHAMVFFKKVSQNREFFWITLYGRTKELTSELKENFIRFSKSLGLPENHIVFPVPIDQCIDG	TM	75
